assay: Solubility profile in solvents; details: methanol, organic solvent or mixture
readoutLabel: solubility

>>> print(df.to_string())
                    entrysmiles  readoutlabel   endpointresult
0  CN[C@@]1(c2ccccc2Cl)CCCCC1=O    solubility  50 to 100 mg/mL

----------
assay: Solubility profile in solvents; conditions: 2-propanol, organic solvent or mixture
readoutLabel: solubility

In [3]: df
Out[3]:
                                   compound  readoutlabel  endpointresult
0  CN[C@@]1(c2ccccc2Cl)CCCCC1=O [R-ketamine]    solubility     ~4000 µg/mL

----------
assay: pKa (general properties)
readoutLabel: pKa

>>> df
                    entrysmiles  endpointresult
0  CN[C@@]1(c2ccccc2Cl)CCCCC1=O             7.5
